# System: UACC-62
# assay-overview: NCI tumour cell line growth inhibition, 48 h
Calls of active or inactive are those of the source. No stated cut-off is given here; in the data, active = GI50 up to about 1.1 µM and inactive = higher. Residues, ends and D or L forms follow the SMILES beside them. *: point of attachment. Boc = CC(C)(C)OC(=O)*; OBn = c1ccc(CO*)cc1
The reply should be one of these categories: active, inactive

compound="CC(C)C(NC(=O)CNC(=O)C1CCCN1C(=O)C(NC(=O)OC(C)(C)C)C(C)C)C(=O)NCC(=O)OCc1ccccc1 (stereo unspecified) (Boc-VPGVG-OBn; configuration not given here)" class_name=inactive
compound=Nc1nc2c(ncn2Cc2ccccc2CCO)c(=O)[nH]1 class_name=inactive
compound=CCSc1nc(N/N=C/c2cccs2)c2cnn(CO)c2n1 class_name=inactive
compound="CNC1=C(C)C(=O)C2=C(C1=O)C(COC(N)=O)C1(OC)C3NC3CN21 (stereo unspecified)" class_name=active
compound=Brc1ccc2ns[s+]c2c1 class_name=active

Task: What classification did CN(C)CCN1Nc2c3ccccc3nc3c(C(=O)NCCCN(C)CCCNC(=O)c4ccc5c6c(c7ccccc7nc46)NN5CCN(C)C)ccc1c23 end up with in this test?
Result: active
